- EXPERIMENT: soluble on expression in E. coli; label from the status in PepcDB or PDB records
RECORDED ENDPOINT: soluble on expression in E. coli

MGSDKIHHHHHHMQKHARVIYNPTSGREIIKKNLADVLSILEQAGYVTSAHATTAEPDDAKHAAEEAVRNRFDLVVAAGGDGTINEVINGIAEKEYRPKVGIIPTGTTNDFARALHVPRDVIKATKIIAAGQSVAMDIGKANETYFINIGGGGRLTELTYDVPSRLKTMLGQLAYYLKGIEMLPSLKATKVKVEYDQGVFEGEVMFFLLGLTNSIGGFEKIAPDAKLDDGKFSLIIVKKVNLAEFIRLVTLALRGDHIKEPNVIYVKSEKVIVNSEDKMLINLDGELGGETPMEFRNLRQHIEFFASVDDIPATDLFIKENS not soluble
MSLKRKYEDHFKEQAVRLSFERGEISSVERELGINRTSLGKWRKKYEHLKLAPKDAVIIELNKKIKDSLLTLEILKNGSEFAAQGKVMTKRFIENNSSKYPIGKMCALLQISQRAYYKLKKKEISDKQSQIILLKEEVAAVYYEFKKTYGYRKIAKVLQCRGFKVGESQIRIYMNALGLRRRAKSRFTITTDSVHNHYIAQNILNREFTINQPAKAWVSDITYIAAEKGFLYLTIVLDLFDRKIIGWSLADSMSTKETTLPAWEMAVKNRNITQDLIFHSDRGVQYANKIFTETLDSYKFVRRSMSRKQNHNDNAVSESFFGNLKRELINGNKPLPREQMRVQVYQYIENWYNKKRRHSYLNYRTIEEFDKLHEGHHHHHH not soluble

----------
- EXPERIMENT: soluble on expression in E. coli; label from the status in PepcDB or PDB records
RECORDED ENDPOINT: soluble on expression in E. coli

Some sequences with recorded soluble on expression in E. coli:
APAAVDWRARGAVTAVKDQGQCGSCWAFSAIGNVECQWFLAGHPLTNLSEQMLVSCDKTDSGCSGGLMNNAFEWIVQENNGAVYTEDSYPYASGEGISPPCTTSGHTVGATITGHVELPQDEAQIAAWLAVNGPVAVAVDASSWMTYTGGVMTSCVSEALDHGVLLVGYNDSAAVPYWIIKNSWTTQWGEEGYIRIAKGSNQCLVKEEASSAVVG soluble
MKKLAVKALLFIMGTMLYSAPTYEYRRELREGARGKWTNLRQHLNSGTRLEKELTKVDKQIDKKVNEIQEIEDLLFRIEQYKAANNIR not soluble
KTKNEPKVILELAKESDLPEFQKKLQEAFAIAVIETFGDCEDGPIPSDNDVQESFNAPGAVVYHILQDGKNVGGAVVRINSQTNHNSLDLFYVSPEYHSQGIGLSAWKAIEAQYPDTVLWETVTPYFEKRNINFYVNKCGFHIVEFYNEHHSNPHMHRNGR soluble
MANLPSSSGMFSRLLANVFNTTVASRCSASGRWWPQPEYELSKHRSRAPSMGIHRRTRLNVVDNSALGKEADTTGKLPYCIHVYKQGRRAKHMPHAELGDKILVAIRGQMRKAYVVGANTHVHYRKHGVPVTDQNMIVLLDEEGNPLGNRITAPIPTKLMANRGNVQFSKVLALANKFI soluble
MSEAIIAKKAEQVELIAEKMKAAASIVIVDSRGLTVDQDTVLRRSLRESGVEFKVIKNSILTRAAEKAGLDELKDVFVGPSAVAFSNEDVIAPAKVINDFTKTADALEIKGGAIEGAVSSKEEIQALATLPNREGMLSMLLSVLQAPVRNVAYAVKAVAENKEGAA not soluble

The measured soluble on expression in E. coli associated with `MAASLGLAAAAASAWAQAPAMDHGSMPGMDHGAAPASAMDHGSMPGMDHGAAPAPAIGALPSSDGAGDQSYAAYGIHSHMMDDMATSQLLFDKLGMTYDRDRRTGLQWDGQFWVGRDLDKLWIKSEGERVGGRSDGKVEAFWNRTISPFWDLQVGARRDFGTGPKRNWGAIGLQGVAPYNIETEVTAYVGGSGRTALALKAEYDLLLTQRLVLTPEIEASVYGKDDKARGIGAGLSDASFSLRLRYEITREVAPYVGVSFGRKFGRTASYASEEGESRSERAIMAGVRIWFLEHHHHHH` reads not soluble

The measured soluble on expression in E. coli associated with `MSLKSLSYKRIYKSQEYLATLGTIEYRSLFGSYSLTVDDTVFAMVSDGELYLRACEQSAQYCVKYPPVWLTYKKCGRSVTLNYYRVDESLWRNQLKLVRLSKYSLDAALKEKSTRNTRERLKDLPNMSFHLEAILGEVGIKDVRALRILGAKMCWLRLRQQNSLVTEKILFMLEGAIIGIHEAALPVARRQELAEWADSLTPKQEFPAELEEGHHHHHH` reads soluble

The measured soluble on expression in E. coli associated with `MRSHNLFGDMCEAFMTKYVMTELRPKTQTLYKSTFNKYVTPYKNIDIERYKYTDWIAYFDWVKKESSSANAGSVLKRFKAVANWAKARGQIKHSHLIDIPIKLEHHHHHH` reads not soluble
